- System: NCI-H460 lung
- testSummary: NCI tumour cell line growth inhibition, 48 h
// reported TGI per item
I only need the number, in µM, no unit after it.

Completed entries (count: 2):
{"itemSmiles": "O=C(N/N=C/c1cc(Cl)cc(Cl)c1[OH2+])c1ccncc1.O=S(=O)([O-])[O-].[Fe+2]", "measurement": 22.4}
{"itemSmiles": "CC(=O)Oc1ccc(C)c2c1[C@H]1CC[C@]3(C)[C@@H](OC(C)=O)CC[C@H]3[C@@H]1CC2", "measurement": 37.4}

Let's switch to this molecule now.
Task item: Entry Cn1c2ccccc2c2c(=O)n(CCCC(=O)NCCc3cnc[nH]3)c3c(-c4ccccc4)nnn3c21 has what TGI?
Reply: 24.3

---

- Test system: UACC-62 melanoma
- testSummary: NCI tumour cell line growth inhibition, 48 h
Measured TGI, listed per entry for reference.
Record the value in µM, omitting the unit from your answer.

{"itemSmiles": "O=C(CCN1CCCC1)Nc1ccc2c(Nc3ccc(Br)cc3)c3ccccc3nc2c1", "assayedTarget": "UACC-62 melanoma", "observationType": "TGI", "measurement": 3.12}

Next item in the queue.
Task item: Please report the recorded TGI for O=C1NC(NNc2ccccc2)=N/C1=C\c1ccco1 .
Reply: 17.3

---

- System: SNB-75 CNS
- testSummary: NCI tumour cell line growth inhibition, 48 h
observationType: TGI

Example molecules with recorded TGI:
{"molecule": "Cc1nnc(N)nc1C/C=C/C(C)Sc1ccc(Cl)cc1 (stereo unspecified)", "TGI": "19.2 µM"}
{"molecule": "O=C(OCC1CC(C2(O)CCCCC2)C(=O)O1)c1ccccc1 (stereo unspecified)", "TGI": "> 100 µM"}
{"molecule": "O=C(CC1(O)C(=O)Nc2c(Cl)cc(Cl)cc21)c1ccc([N+](=O)[O-])cc1 (stereo unspecified)", "TGI": "> 87.6 µM"}
{"molecule": "CC(NNC(=S)N1CCCC1)c1cccnn1 (stereo unspecified)", "TGI": "> 28.7 µM"}

Task item: Look up TGI for this molecule: Cn1c2ccccc2c(=NNc2ccc(S(=O)(=O)N=C(N)N)cc2)c2ccccc21
Reply: 25.4 µM

Task item: Could you do the same for O=c1[nH][nH]c(=O)c2c(O)c(-c3ccccc3)ncc12 , please?
Reply: 353 µM

Task item: Request: Cc1cc(S(=O)(=O)Nc2nnc3c(Cl)cc(C(F)(F)F)cn23)c(S)cc1Cl
Reply: 9.12 µM

Task item: Then what about the molecule CC(C)C1CCC(=O)CC1CCCCC1CC(=O)CC1O[Si](C)(C)C(C)(C)C (stereo unspecified) ?
Reply: 26 µM

Task item: Next: Cc1nc2c(n1Cc1ccc(F)cc1)C(=O)c1ccccc1C2=O
Reply: > 100 µM

Task item: What do you get for C[N+]1(C)C/C(=C\C=C\c2ccccc2)C(=O)/C(=C/C=C/c2ccccc2)C1 ?
Reply: 40.3 µM

Task item: Please do the same for COc1ccccc1NC(=O)C(=O)C(c1cnc2ccc([N+](=O)[O-])cc2n1)[N+](=O)[O-] (stereo unspecified) as well.
Reply: > 100 µM

Task item: Try this molecule next: CSC(=NC(=O)c1ccccc1)SCCSC(=NC(=O)c1ccccc1)SC
Reply: > 100 µM

Task item: Here is the next molecule: COc1ccccc1-c1ccc2c(N)c(C(=O)c3ccc4c(c3)OCO4)sc2n1
Reply: 15.6 µM

Task item: Next record, please: COc1cc2c(cc1OC)-c1c(c3ccc([N+](=O)[O-])cc3c(=O)n1CCCN=[N+]=[N-])C2=O
Reply: > 100 µM

Task item: Continue with CCCc1nn(C)c(CCC(=O)N(Cc2ccccc2)Cc2ccccc2)c1CC
Reply: > 100 µM

Task item: Field entry: CC(C)(C)c1cc(OCc2n[nH]c(=S)n2N)c(Cl)cc1OCc1n[nH]c(=S)n1N
Reply: > 100 µM

---

- Test system: CCRF-CEM leukemia
- testSummary: NCI tumour cell line growth inhibition, 48 h
observationType: TGI

{"compound": "Cn1c2ccccc2c2c(=O)n(CCCC(=O)NCCc3cnc[nH]3)c3c(-c4ccccc4)nnn3c21", "TGI": "> 50 µM"}

Task item: So what's the measured TGI for this one? CCOC(OCC)[C@@H]1C[C@@H]2N(O[C@H](OC3CCCC3(c3ccccc3)c3ccccc3)[C@H](OC(C)=O)[C@@]2(CC)Cc2ccc(OC)c(OC)c2)O1 (stereo not given in full)
Reply: > 100 µM

---

- Tested on: UACC-257 melanoma
- testSummary: NCI tumour cell line growth inhibition, 48 h
Let's look at some compounds and their measured log10(TGI).
Kindly note that the scale is log10 and the underlying TGI is in µM.

These recorded examples may help you get a feel for the data.
{"compound": "O=C(/C=C/c1ccc(O)c(O)c1)c1ccc(O)cc1O", "observationType": "log10(TGI)", "measurement": 1.48}
{"compound": "COc1cccc(C2c3cc4c(cc3OC(NNC(N)=O)C2C)OCO4)c1OC (stereo unspecified)", "observationType": "log10(TGI)", "measurement": 1.96}
{"compound": "O=[N+]([O-])c1cc(C(F)(F)F)cc2n[se]nc12", "observationType": "log10(TGI)", "measurement": 0.66}
{"compound": "O=C(N/N=C/c1cc(Cl)cc(Cl)c1[O-])c1ccccc1O.O=C(N/N=C/c1cc(Cl)cc(Cl)c1[O-])c1ccccc1O.[Fe+2]", "observationType": "log10(TGI)", "measurement": 1.93}

Task item: Which log10(TGI) is reported for this compound? Cn1c2ccccc2c2c(=O)n(CCCC(=O)NCCc3cnc[nH]3)c3c(-c4ccccc4)nnn3c21
Reply: 1.33

Task item: And the next one, O=C1NC(NNc2ccccc2)=N/C1=C\c1ccco1 ?
Reply: 1.80

Task item: One more compound: CC(C)c1ccc(C(c2c(O)c3ccccc3oc2=O)c2c(O)c3ccccc3oc2=O)cc1
Reply: 1.72

Task item: Another: CC(C)(Cl)C(Cl)CC/C(CBr)=C(\Cl)CBr (stereo unspecified)
Reply: 0.71

Task item: How about this compound: COc1ccc2[nH]cc(Cc3c[nH]c4ccc(OC)cc34)c2c1
Reply: 1.94

Task item: Another compound: O=C(Nc1cccc(-n2ccc3c(NC(=O)c4ccccc4)nccc32)c1)c1ccc(Cl)c(Cl)c1
Reply: 0.47

Task item: Same lookup for Cn1c2ccccc2c(=NNc2ccc(S(=O)(=O)N=C(N)N)cc2)c2ccccc21 , please.
Reply: 1.54

---

- Tested on: UACC-257 melanoma
- testSummary: NCI tumour cell line growth inhibition, 48 h
Here the recorded GI50 is given for each entry.

Below, each entry is followed by its recorded GI50 result.
{"compound": "Cn1c2ccccc2c2c(=O)n(CCCC(=O)NCCc3cnc[nH]3)c3c(-c4ccccc4)nnn3c21", "GI50": "12 µM"}
{"compound": "O=C(O)CC(S)C(=O)O.[Li+].[Sb] (stereo not given)", "GI50": "> 100 µM"}

Task item: // fetch UACC-257 melanoma GI50 for O=C(C(=O)c1cccnc1)c1cccnc1
Reply: > 100 µM

Task item: Another compound to look at: Cn1cc(-c2csc(-c3cn(CCCN4CCCCC4)c4ccc(Br)cc34)n2)c2cccnc21
Reply: 1.8 µM

Task item: Next: CC[C@H](C)C(=O)O[C@H]1CCC=C2C=C[C@H](C)[C@H](CC[C@@H]3C[C@@H](O)CC(=O)O3)[C@H]21
Reply: 73.3 µM

Task item: Param item: C#Cc1cccc(Nc2ncnc3ccc(-c4cnc(N)nc4)cc23)c1
Reply: 6.57 µM

Task item: Entry Oc1ccccc1/C=N\Nc1ccccc1 please
Reply: 31.1 µM

Task item: Subsequent entry: O=C(CS(=O)c1nc2ccccc2nc1-c1ccccc1)Nc1ccc(Cl)cc1 (stereo not given)
Reply: 24.7 µM

Task item: CN(CCCCCCCCNc1ccnc2ccccc12)Cc1ccc(-c2ccc(-c3ccc(C#N)cc3)s2)cc1 ?
Reply: 0.482 µM

Task item: What do you have for O=C(CCN1CCCC1)Nc1ccc2c(Nc3ccc(Br)cc3)c3ccccc3nc2c1 ?
Reply: 1.89 µM

---

// GI50 lookup, one value per entry
- Test system: SF-539 CNS
- testSummary: NCI tumour cell line growth inhibition, 48 h

{"compound": "CCN(CC)CCNc1ccc(N=Nc2cnc3ccccc3c2)c2ccccc12", "observationType": "GI50", "measurement": "1.67 µM"}

Task item: // query GI50 value for entry COC1/C=C/OC2(C)Oc3c(C)c(O)c4c(O)c(c(/C=N/N(c5ccccc5)c5ccccc5)c(O)c4c3C2=O)NC(=O)C(C)=C/C=C/C(C)C(O)C(C)C(O)C(C)C(OC(C)=O)C1C (centres undefined)
Reply: 1.44 µM

Task item: Also need CCCCNP1(NCCCC)=NP(NCCCC)(NCCCC)=NP(NCCCC)(NCCCC)=NP(NCCCC)(NCCCC)=N1 , thanks.
Reply: 2.89 µM

Task item: Please do the same for O=C(CCN1CCCC1)Nc1ccc2c(Nc3ccc(Br)cc3)c3ccccc3nc2c1 as well.
Reply: 1.55 µM
